Where do the numbers come from? From PubChem BioAssay (EPA / NIEHS).

Experiment: BSK_3C_TissueFactor: BioMAP Diversity Plus: 3C Assay for Tissue Factor Biomarker Activity (AID 2282997)
Conditions: BioMAP 3C HUVEC, tissue factor biomarker readout; actives raise or lower the signal
Calls of active or inactive are those of the source. How the source made its calls: active means hit-call score of the fitted dose curve at least 0.9, where 1 is the maximum; inactive means score below 0.9.
Select the matching outcome among YES for active, NO for inactive

Recorded call for `CCCCCCCCCCCCCO` ?
YES

Recorded call for `COCCOCCOC` ?
NO

Recorded call for `CCCCCCCCCCCCCCCCCC(=O)O` ?
NO

---

Assay: BSK_SAg_PBMCCytotoxicity: PBMC Cytotoxicity Assessment in the BioMAP Diversity Plus: SAg Assay (AID 2283093);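 further: PBMC viability measured as Alamar Blue reduction fluorescence at 546/580 nm; fitted both ways against DMSO so a hit may be loss or gain of signal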
Conditions: primary human HUVEC with PBMC
The source made the active and inactive calls. How the source made its calls: active means hit-call score of the fitted dose curve at least 0.9, where 1 is the maximum; inactive means score below 0.9.
Select the matching outcome among yes (1) = active, no (0) = inactive

Use these answered entries as a reference point.
- compound: "CCOC(=O)CCC(=O)OCC"
  label-class: "no (0)"
- compound: "COc1ccc(S(=O)(=O)N2C(=O)[C@@](c3ccccc3OC)(N3C[C@H](O)C[C@H]3C(=O)N(C)C)c3cc(Cl)ccc32)c(OC)c1"
  label-class: "no (0)"
- compound: "CCCCc1ccc2c(n1)[C@@H](c1ccc(OC)cc1C[C@H](C)C(=O)O)[C@H](C(=O)O)[C@H]2c1ccc2c(c1)OCO2"
  label-class: "no (0)"
- compound: "CNCc1cc(F)ccc1Oc1ccc(Cl)c(Cl)c1"
  label-class: "yes (1)"
- compound: "CCCCCCCCCCCCCCCC"
  label-class: "no (0)"
- compound: "CCCCCCCCCCCC(=O)OC"
  label-class: "yes (1)"
- compound: "CC(=O)C(C)=CC1C(C)=CCCC1(C)C (configuration not stated)"
  label-class: "no (0)"
- compound: "Clc1cc(Cl)c(Cl)cc1Cl"
  label-class: "no (0)"

Recorded call for `C[C@]12C=CC(=O)C=C1CC[C@@H]1[C@@H]2C(=O)C[C@@]2(C)[C@H]1CC[C@]2(O)C(=O)CO` ?
no (0)

Recorded call for `Cc1ccc(Cl)cc1` ?
no (0)

Recorded call for `Cc1ccc(C(C)C)c(O)c1` ?
no (0)

Recorded call for `CC(=O)OCCOCCOCCOC(C)=O` ?
no (0)

Recorded call for `NCCO` ?
no (0)

Recorded call for `COc1cc(C=O)ccc1O` ?
no (0)

Recorded call for `CCCCCCCCCCCCCO` ?
yes (1)

Recorded call for `COc1cc(S(=O)(=O)O)c(C)cc1N=Nc1c(O)ccc2cc(S(=O)(=O)O)ccc12` ?
no (0)

Recorded call for `C=CCc1ccc(O)c(OC)c1` ?
no (0)

Recorded call for `CCNc1cccc(C)c1` ?
no (0)

Recorded call for `CC(=O)Oc1ccccc1C(=O)O` ?
no (0)

Recorded call for CC(CO)OC(C)CO (configuration not stated) (tested in a mixture with another compound) ?
no (0)

Recorded call for `CC(=O)OC/C=C(\C)CCC=C(C)C` ?
no (0)

Recorded call for `CN1CCN(Cc2cc(-c3ccc4[nH]c(=O)oc4c3)co2)[C@@H](c2ccc(F)cc2)C1` ?
yes (1)

Recorded call for `O=c1c(O)c(-c2ccc(O)c(O)c2)oc2cc(O)cc(O)c12` ?
yes (1)

---

Assay: APR_HepG2_p53Act_72hr: Apredica 72-hour HepG2 Assay for p53 Activation (AID 2282923);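 further: average cellular p53 protein immunofluorescence intensity in HepG2 cells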
Settings: high-content imaging, actives raise or lower the signal
Calls of active or inactive are those of the source. Rule for the calls: active = hit-call score of the fitted dose curve at least 0.9, where 1 is the maximum; inactive = score below 0.9.
Select the matching outcome among active, inactive

- smiles-text: "CNCc1cc(F)ccc1Oc1ccc(Cl)c(Cl)c1"
  label-class: "active"
- smiles-text: "CC(=O)OC/C=C(\\C)CCC=C(C)C"
  label-class: "inactive"
- smiles-text: "COc1cccc2c1C(=O)c1c(O)c3c(c(O)c1C2=O)C[C@@](O)(C(=O)CO)C[C@@H]3O[C@H]1C[C@H](N)[C@H](O)[C@H](C)O1"
  label-class: "active"
- smiles-text: "CCCCCCCCCCC"
  label-class: "inactive"

Recorded call for `NC(=O)Cn1c(=O)cc(CCN2CCN(c3nccc4sccc34)CC2)c2ccc(F)cc21` ?
active

Recorded call for `CC1=C(/C=C/C(C)=C/C=C/C(C)=C/CO)C(C)(C)CCC1` ?
inactive

Recorded call for `CCOc1ccc2c(c1)C(C)=CC(C)(C)N2` ?
active

Recorded call for `COc1cc(S(=O)(=O)O)c(C)cc1N=Nc1c(O)ccc2cc(S(=O)(=O)O)ccc12` ?
inactive

Recorded call for `Oc1ccc2ccccc2c1N=Nc1ccccc1` ?
inactive

Recorded call for `O=c1c(O)c(-c2ccc(O)c(O)c2)oc2cc(O)cc(O)c12` ?
inactive

Recorded call for `CC1(C)NC(=O)NC1=O` ?
inactive

Recorded call for `CC(C)(C)c1cc(O)c(C(C)(C)C)cc1O` ?
active

---

Experiment: STM_H9_OrnithineISnorm_perc: Stemina devTOX quickPredict H9 human embryonic stem cell (hESC)-based Assay for Ornithine (ORN) Metabolite Biomarker, Normalized (AID 2283712);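 further: ornithine released into spent medium during last day measured by mass spectrometry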
Active and inactive are the calls of the source. Rule for the calls: active = hit-call score of the fitted dose curve at least 0.9, where 1 is the maximum; inactive = score below 0.9.
Select the matching outcome among Y (active), N (inactive)

- compound: "O=c1[nH]cc(F)c(=O)[nH]1"
  label-class: "Y"
- compound: "CCCCC(CC)COC(=O)CC(C(=O)OCC(CC)CCCC)S(=O)(=O)O (stereo unspecified)"
  label-class: "N"
- compound: "CN1CCN(Cc2cc(-c3ccc4[nH]c(=O)oc4c3)co2)[C@@H](c2ccc(F)cc2)C1"
  label-class: "N"

Recorded call for Cc1nc(-c2ccc3c(c2)CCN(CCC2CCC(NC(=O)/C=C/c4ccc(F)cc4)CC2)CC3)no1 (stereo unspecified) ?
N

Recorded call for `O=C(O)Cc1ccccc1Nc1c(Cl)cccc1Cl` ?
N

Recorded call for `Cc1cc(NC(=O)C(=O)O)cc(C)c1Oc1ccc(O)c2c1CCC2` ?
N

---

Read-out: Cytochrome P450 7A1 (Homo sapiens)
Assay: LTEA_HepaRG_CYP7A1: Life Technologies and Expression Analysis (LTEA) Assay for Cytochrome P450 7A1 (CYP7A1) using HepaRG (AID 2283496)
Conditions: mRNA level, 48 h; actives raise or lower the signal
Active and inactive are the calls of the source. Rule for the calls: active = hit-call score of the fitted dose curve at least 0.9, where 1 is the maximum; inactive = score below 0.9.
Select the matching outcome among active, inactive

Use these answered entries as a reference point.
- molecule: "COc1cc(-c2nc(NC(=O)c3cc4cc(C)cc(C)c4n3CC(=O)O)sc2CCC2CCCCC2)c(OC)cc1Cl"
  label-class: "active"
- molecule: "CCCCCCCCCCO"
  label-class: "inactive"
- molecule: "NCC1(Cc2noc(=O)[nH]2)CCCCC1"
  label-class: "inactive"

Recorded call for `CCCCCCCCCCCC(=O)OC` ?
inactive

Recorded call for `CN1CCN(Cc2cc(-c3ccc4[nH]c(=O)oc4c3)co2)[C@@H](c2ccc(F)cc2)C1` ?
inactive

Recorded call for `Nc1ccccc1N` ?
active

Recorded call for `O=C(O)CCCCC(=O)O` ?
inactive

Recorded call for `c1cc(-c2ccncc2)ccn1` ?
inactive

Recorded call for COCCOC[C@H](CC1(C(=O)NC2CCC(C(=O)O)CC2)CCCC1)C(=O)Oc1ccc2c(c1)CCC2 (some centres undefined) ?
inactive

Recorded call for `CC(=O)OCCOCCOCCOC(C)=O` ?
inactive

Recorded call for `Clc1cc(Cl)c(Cl)cc1Cl` ?
inactive

Recorded call for `COC(=O)c1ccc(O)cc1` ?
inactive

Recorded call for `NCCO` ?
inactive

Recorded call for `Cc1oc(-c2ccccc2)nc1CCOc1cccc2c1ccn2CCC(=O)O` ?
active

---

Experiment: ATG_Sox_CIS: Attagene CIS-FACTORIAL HepG2 Assay for human SRY-box transcription factor (SOX) (AID 2282960)
Conditions: HepG2 Attagene cis-factorial SOX reporter, mRNA; actives raise or lower the signal
Calls of active or inactive are those of the source. The calls were made as follows: active = hit-call score of the fitted dose curve at least 0.9, where 1 is the maximum; inactive = score below 0.9.
Select the matching outcome among 1 for active, -1 for inactive

- molecule: "NS(=O)(=O)c1cc2c(cc1Cl)NCNS2(=O)=O"
  label-class: -1
- molecule: "Cc1ccc(N(C)C)cc1"
  label-class: -1
- molecule: "CCNc1cccc(C)c1"
  label-class: -1
- molecule: "C[C@]12C=CC(=O)C=C1CC[C@@H]1[C@@H]2C(=O)C[C@@]2(C)[C@H]1CC[C@]2(O)C(=O)CO"
  label-class: -1
- molecule: "FC(F)(F)C(F)(F)C(F)(F)C(F)(F)C(F)(F)C(F)(F)CCI"
  label-class: -1
- molecule: "COCCOC[C@H](CC1(C(=O)NC2CCC(C(=O)O)CC2)CCCC1)C(=O)Oc1ccc2c(c1)CCC2 (some centres undefined)"
  label-class: -1

Recorded call for `Cc1cccc(C)c1O` ?
-1

Recorded call for `NCC1(Cc2noc(=O)[nH]2)CCCCC1` ?
-1

Recorded call for `COc1cc(-c2nc(NC(=O)c3cc4cc(C)cc(C)c4n3CC(=O)O)sc2CCC2CCCCC2)c(OC)cc1Cl` ?
1

Recorded call for `NC(=O)Cn1c(=O)cc(CCN2CCN(c3nccc4sccc34)CC2)c2ccc(F)cc21` ?
-1

Recorded call for `CNCc1cc(F)ccc1Oc1ccc(Cl)c(Cl)c1` ?
-1
